- ASSAY_INFO: Plasma concentration of rutin-MGO adducts in rats after oral rutin (HPLC-MS/MS, MRM)
- Type: in vivo, Sprague–Dawley rats
- RUN_CONDITIONS: male, Sprague-Dawley, rat, plasma, oral, rutin 100 mg/kg BW oral gavage, time point 0.25 h
QUANTITY_NAME: concentration at 0.25 h (ng/mL)
The response must be a number in ng/mL with no trailing unit.

Task: Recorded concentration at 0.25 h of CC(=O)C(O)c1c(O)c(C(O)C(C)=O)c2oc(-c3ccc(O)c(O)c3)c(OC3OC(COC4OC(C)C(O)C(O)C4O)C(O)C(O)C3O)c(=O)c2c1O (stereo not shown) , please.
Output: 9.4

---

- ASSAY_INFO: Rutin-MGO adducts in tissues, urine and feces of rats 24 h after oral rutin
- Type: in vivo, Sprague–Dawley rats
- RUN_CONDITIONS: 24 h after rutin 100 mg/kg BW oral
QUANTITY_NAME: Concentration in kidney

CC(=O)C(=O)c1c(O)c(C(=O)C(C)=O)c2oc(-c3ccc(O)c(O)c3)c(O[C@@H]3O[C@H](CO[C@@H]4O[C@@H](C)[C@H](O)[C@@H](O)[C@H]4O)[C@@H](O)[C@H](O)[C@H]3O)c(=O)c2c1O = 0.16 ± 0.04 µg/kg
CC(=O)C(O)c1c(O)c(C(O)C(C)=O)c2oc(-c3ccc(O)c(O)c3)c(OC3OC(COC4OC(C)C(O)C(O)C4O)C(O)C(O)C3O)c(=O)c2c1O (stereo not drawn) [Adduct B, 6-(1-acetol)-8-(1-acetol)-rutin] = trace
CC(=O)C(O)c1c(O)c(C(O)C(C)=O)c2oc(-c3ccc(O)c(O)c3)c(OC3OC(COC4OC(C)C(O)C(O)C4O)C(O)C(O)C3O)c(=O)c2c1O (stereo not drawn) [Adduct A, 6-(1-acetol)-8-(1-acetol)-rutin] = trace

---

- ASSAY_INFO: Rutin-MGO adducts in tissues, urine and feces of rats 24 h after oral rutin
- Type: in vivo, Sprague–Dawley rats
- RUN_CONDITIONS: 24 h after rutin 100 mg/kg BW oral
Field: Concentration in kidney. Provide a value for each of the compounds that follow.
# unit: µg/kg | format: bare number

Task: For CC(=O)C(=O)c1c(O)c(C(O)C(C)=O)c(O)c2c(=O)c(O[C@@H]3O[C@H](CO[C@@H]4O[C@@H](C)[C@H](O)[C@@H](O)[C@H]4O)[C@@H](O)[C@H](O)[C@H]3O)c(-c3ccc(O)c(O)c3)oc12 (some centres unmarked) , what is its reported Concentration in kidney?
Output: 0.12

Task: So what's the measured Concentration in kidney for this one? CC(=O)C(=O)c1c(O)c(C(O)C(C)=O)c2oc(-c3ccc(O)c(O)c3)c(OC3OC(COC4OC(C)C(O)C(O)C4O)C(O)C(O)C3O)c(=O)c2c1O (centres unmarked)
Output: 0.07

---

Assignment: determine reported Concentration in feces for the given molecules.
- ASSAY_INFO: Rutin-MGO adducts in tissues, urine and feces of rats 24 h after oral rutin
- Assay type: in vivo, Sprague–Dawley rats
- RUN_CONDITIONS: feces collected within 24 h after rutin 100 mg/kg BW oral
Give just the numeric value; µg/kg need not be written.

Task: Request the reported Concentration in feces associated with CC(=O)C(=O)c1c(O)c(C(O)C(C)=O)c2oc(-c3ccc(O)c(O)c3)c(OC3OC(COC4OC(C)C(O)C(O)C4O)C(O)C(O)C3O)c(=O)c2c1O (centres unmarked) [6-(1,2-propanedione)-8-(1-acetol)-rutin]
Output: 1.54

Task: Looking for the measured Concentration in feces of CC(=O)C(=O)c1c(O)c(C(O)C(C)=O)c(O)c2c(=O)c(O[C@@H]3O[C@H](CO[C@@H]4O[C@@H](C)[C@H](O)[C@@H](O)[C@H]4O)[C@@H](O)[C@H](O)[C@H]3O)c(-c3ccc(O)c(O)c3)oc12 (some centres unmarked) [6-(1-acetol)-8-(1,2-propanedione)-rutin] , can you help?
Output: 2.23

Task: Reported Concentration in feces for CC(=O)C(=O)c1c(O)c(C(=O)C(C)=O)c2oc(-c3ccc(O)c(O)c3)c(O[C@@H]3O[C@H](CO[C@@H]4O[C@@H](C)[C@H](O)[C@@H](O)[C@H]4O)[C@@H](O)[C@H](O)[C@H]3O)c(=O)c2c1O : what is it?
Output: 0.26
